Data origin: PubChem BioAssay

assay: modulators of HCV replicon luciferase signal, primary screen, HCV replication inhibitor project, Huh7 cells, luciferase reporter (AID 1109); settings: 48 h, higher = more signal;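 further: huh7 hepatoma cells harbouring a luciferase neomycin HCV replicon reporter; luciferase luminescence as measure of HCV replicon replication; test concentration not given here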
reported_endpoint: z-score

• O=C1OCCC=C[C@H]2OC34C=CCN(c5ccc(Cl)cc5)C(=O)[C@H]3N(CCCCCO)C(=O)[C@@H]4C12 (stereo partly specified) = 0.312
• CC(C)(C)N1CC=CC23O[C@@H]4C=CCOC(=O)[C@@H]4[C@H]2C(=O)N(CCCO)[C@@H]3C1=O (stereo partly specified) = 0.104
• COC1(C)CN(Cc2ccccc2Br)[C@H](/C=C/c2ccccc2)[C@H](Cc2ccccc2)O1 (stereo partly specified) = -1.58
• CCOC(=CC(=O)OC)CC(O)c1cccc(Cl)c1 (stereo unspecified) = -2.17
• COCCOC(=O)N1C(=O)[C@@]2(c3cc(C#CC4(O)CCCCCC4)ccc31)[C@H](c1ccccc1OCCO)N1[C@H](c3ccccc3)[C@H](c3ccccc3)OC(=O)[C@H]1[C@@H]2C(N)=O = -3.33
• [N-]=[N+]=NCc1ccccc1C[C@@]1(C(N)=O)N=C(c2ccc(OCCCO)cc2)O[C@@H]1c1ccccc1CN=[N+]=[N-] = -1.55

* * *

experiment: PSAC antagonists in infected red cells, primary screen, cell-based, P. falciparum Indochina, OD700, 18 h (AID 1157); settings: P. falciparum Indochina infected erythrocytes, osmotic lysis OD700, 18 h; higher = more signal, called active from +8 up or from −8 down
Tick criterion met if z-score is 1 or greater. Tick criterion not met if z-score is less than 1.

* COCCOC(=O)N1C(=O)[C@@]2(c3cc(C#Cc4ccc(OC)cc4)ccc31)[C@H](C(=O)NC[C@H](O)c1ccccc1)[C@H]1C(=O)O[C@H](c3ccccc3)[C@H](c3ccccc3)N1[C@@H]2c1ccc(O)cc1 | criterion not met
* C=C[C@@H](C)[C@H](OC(=O)Nc1ccc(SC)cc1)c1ccc(OCCO)cc1 | criterion met
* C=C(C(=O)CC[C@H](OC(=O)c1cccnc1)c1ccc(CO)o1)C(C)C | criterion not met
* O=c1cccc(-c2ccc(C(F)(F)F)cc2)o1 | criterion met
* O=C1OCC=C[C@H]2OC34C=CCN(c5ccc(Cl)cc5)C(=O)[C@H]3N(CCCCCO)C(=O)[C@@H]4[C@@H]12 (stereo partly specified) | criterion not met
* O=C1O[C@@H](c2ccccc2)[C@@H](c2ccccc2)N2[C@@H](c3ccc(O)cc3)[C@]3(C(=O)Nc4ccccc43)[C@@H](C(=O)Nc3nc4ccccc4s3)[C@H]12 | criterion met

* * *

test system: Lefty1; test: Lefty1 binders on small-molecule microarrays, primary screen, biochemical, small-molecule microarray, 635/667 nm fluorescence (AID 1139); settings: small-molecule microarray binding, fluorescence 635/667; higher = more signal
composite z-score for assorted molecules
reported_endpoint: composite z-score

• Cc1ccc(S[C@]2(C(=O)NC3CC3)CC(=O)N(Cc3ccccc3Cl)[C@@H]2c2ccc(CO)cc2I)cc1 = 0.101
• CC(C)CN1C(=O)[C@@]2(Cc3ccccc31)c1ccccc1C(=O)N(Cc1ccccc1C(F)(F)F)[C@H]2c1ccc(CO)cc1 = 0.636
• O=C1OCC=C[C@H]2OC34C=CCN(Cn5nnc6ccccc65)C(=O)[C@H]3N(CCCCCCO)C(=O)[C@@H]4[C@@H]12 (some centres not stated) = -0.835
• O=c1cccc(-c2ccc(C(F)(F)F)cc2)o1 = -1.03
• NCCCCCCNC(=O)[C@H]1C[C@H]2C(=O)N[C@@H](Cc3ccccc3)C(=O)N2[C@H]1c1ccc(O)cc1 = 0.795
• O=C1O[C@@H](c2ccccc2)[C@@H](c2ccccc2)N2[C@@H](c3ccc(O)cc3)[C@]3(C(=O)Nc4ccc(C#CCCO)cc43)[C@@H](C(=O)Nc3nc4ccccc4s3)[C@H]12 = 0.531
• NC(=O)NCC#Cc1ccc2c(c1)[C@]1(C(=O)N2)[C@H](C(=O)Nc2nc3ccccc3s2)[C@H]2C(=O)O[C@H](c3ccccc3)[C@H](c3ccccc3)N2[C@@H]1c1ccc(O)cc1 = 0.383
• COC(=O)C1(Cc2ccccc2)C=C2C(=C(c3ccccc3)C(=O)C2C)CN1 (configuration not stated) = -0.586
• COCCOC(=O)N1C(=O)[C@@]2(c3ccccc31)[C@H](c1ccc(OCCO)cc1)N1[C@H](c3ccccc3)[C@H](c3ccccc3)OC(=O)[C@H]1[C@@H]2C(=O)Nc1nc2ccccc2s1 = 0.518
• COc1ccc([Si](C)(C)[C@H]2[C@H](CCn3cc([C@H](O)c4ccccc4)nn3)O[C@@]3(C(=O)N(Cc4ccc(N5CCC5=O)cc4)c4ccccc43)[C@@H]2C)cc1 = 1.18
• C#CCNC(=O)[C@H](Cc1ccccc1)NC(=O)[C@@H](N=[N+]=[N-])C(C)C = 0.343
• COc1ccc([Si](C)(C)[C@@H]2[C@@H](CCn3cc([C@H](O)c4ccccc4)nn3)O[C@]3(C(=O)N(Cc4ccc(N5CCOC5=O)cc4)c4ccccc43)[C@H]2C)cc1 = 1.14

* * *

target: Follistatin-related protein 3 (Homo sapiens); assay: FSTL3 binders on small-molecule microarrays, primary screen, biochemical, small-molecule microarray, 635 nm fluorescence (AID 1105); settings: FSTL3 binding, higher = more signal;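 further: score merges emission near 667 nm and signal to noise per printed spot across three slides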
composite z-score for assorted compounds
reported_endpoint: composite z-score

• C=C(CCCC)/C(=C/C[C@@H](OC(C)=O)c1ccc(CO)o1)c1cc(C(=O)OC)ccc1OC = 1.4
• C=CCOC(=O)[C@@H]1[C@H]2C(=O)O[C@H](c3ccccc3)[C@H](c3ccccc3)N2[C@H](c2ccc(OCCOC(=O)[C@H]3C[C@H]4C(=O)N[C@@H](CCCCN(C)C)C(=O)N4[C@H]3c3cccc(OCCO)c3)cc2)[C@@]12C(=O)Nc1ccc(I)cc12 = 1.32
• C=C(/C=C/CNS(=O)(=O)c1ccc(C)cc1)[C@H](O)[C@H]1CCCN1S(=O)(=O)c1ccccc1[N+](=O)[O-] = 0.998
• [N-]=[N+]=Nc1ccccc1C[C@]1(C(=O)NCc2ccccc2)N=C(c2ccc(OCCCO)cc2)O[C@H]1c1ccccc1 = 0.461
• C=C(COC)/C(=C/C[C@@H](OC(=O)c1ccncc1)c1ccc(OCCO)cc1)c1cnc2ccccc2c1 = 1.58
• CC1CC/C=C\[C@H]2OC34C=CCN(C(C)C)C(=O)[C@H]3N(CCCCCO)C(=O)[C@@H]4C2C(=O)O1 (stereo partly drawn) = -1.05
• CN(C)C(=O)[C@@]1(Cc2ccccc2N=[N+]=[N-])COC(c2ccc(OCCCO)cc2)=N1 = 0.396
• CC=CC(O)C1C=CC2C(=O)N(c3ccccc3)C(=O)C2N1Nc1ccc([N+](=O)[O-])cc1 (stereo not drawn) = 0.501
• O=C(CS)NCCCCCCNC(=O)[C@H]1C[C@H]2C(=O)N[C@@H](Cc3ccccc3)C(=O)N2[C@H]1c1cccc(OCCO)c1 = 1.52
• C=C1C2CC3C(=C4C(CO[C@@H]4[C@H]4CCCN4S(=O)(=O)c4ccccc4[N+](=O)[O-])C4C(=O)N(C)C(=O)C34)CC2C(=O)N1C (stereo partly drawn) = 0.157
• COCCCNC(=O)[C@]1(CCC(=O)OC(C)(C)C)N=C(c2ccc(OCCCO)cc2)O[C@@H]1c1ccccc1 = -0.47
• CN(C)CCCN1C(=O)[C@@]2(c3ccc([N+](=O)[O-])cc3)CC(=O)N(CC34CC5CC(CC(C5)C3)C4)[C@@H]2c2ccc(CO)cc21 = -0.116
• NC(=O)N1C(=O)C2C(C1=O)C1C=C(c3ccc(CO)cc3)C2C(C2CC2)N1Cc1sc2ccccc2c1Cl (stereo not drawn) = 1.21

* * *

test system: Lefty1; test: Lefty1 binders on small-molecule microarrays, primary screen, biochemical, small-molecule microarray, 635/667 nm fluorescence (AID 1139); details: small-molecule microarray binding, fluorescence 635/667; higher = more signal
Tick 1 if composite z-score is -0.9 or greater. Tick -1 if composite z-score is less than -0.9.

• C=CCC(OC(C)=O)[C@@H]1[C@@H](N(Cc2ccc(-c3ccccc3)cc2)C(=O)c2cccc3ccccc23)c2cc(OCCCO)ccc2N1C(=O)Cc1ccc2ccccc2c1 (stereo not given in full) = 1
• CC1CC/C=C\[C@H]2OC34C=CCN(C(C)C)C(=O)[C@H]3N(CCCCCO)C(=O)[C@@H]4C2C(=O)O1 (stereo not given in full) = -1
• CC(=O)n1cc(C(O)C2C=CC3C(=O)N(Cc4ccccc4)C(=O)C3N2n2cnnc2)c2ccccc21 (stereo not given) = 1
• COC(=O)C1(Cc2ccccc2)C=C2C(=C(C(C)C)C(=O)C2C)CN1 (stereo not given) = -1
• CC(C)N1CC=CC23O[C@@H]4C=CCOC(=O)[C@@H]4[C@H]2C(=O)N(C(C)CO)[C@@H]3C1=O (stereo not given in full) = -1

* * *

z-score for assorted molecules
test: inhibitors of hydroxyurea-induced Chk1 phosphorylation, primary screen, imaging, HeLa, phospho-Chk1 antibody, percent positive cells (AID 1186); conditions: hydroxyurea-induced phospho-Chk1 immunofluorescence imaging, higher = more signal
Active and inactive are the calls of the source. How the calls were made is not given here.
reported_endpoint: z-score

* C[C@]1(C(=O)NCCN2CCOCC2)c2ccccc2C(=O)N(Cc2ccc(OC(F)(F)F)cc2)[C@H]1c1ccc(CO)cc1 | -0.198 (inactive)
* CN1C2C=C(CCCO)C(C3C(=O)N(C(N)=O)C(=O)C32)C1c1cccs1 (stereo unspecified) | -0.443 (inactive)
* C=C[C@@H](C)[C@H](OC(=O)Nc1ccc(SC)cc1)c1ccc(OCCO)cc1 | -0.405 (inactive)
* COC(=O)[C@@]1(Cc2ccccc2)[C@H]2c3cc(C(=O)N4CCCC4)n(Cc4cc(F)cc5c4OCOC5)c3C[C@H]2CN1C(=O)c1ccccc1 | 0.189 (inactive)
* COC(=O)[C@@]1(Cc2ccc(OC)cc2)[C@H]2c3cc(C(=O)N(C)C)n(CCc4c[nH]c5ccc(O)cc45)c3C[C@H]2CN1C(=O)c1ccccc1 | 0.453 (inactive)
* C=CCOC(=O)[C@H]1[C@@H]2C(=O)O[C@@H](c3ccccc3)[C@@H](c3ccccc3)N2[C@@H](c2ccc(OCCOC(=O)[C@H]3C[C@H]4C(=O)N[C@@H](CCCC[N+](C)(C)C)C(=O)N4[C@H]3c3cccc(OCCO)c3)cc2)[C@]12C(=O)Nc1ccc(I)cc12 | -0.714 (inactive)
* CC(C)NC(=O)[C@@]1(C)c2ccccc2C(=O)N(C(C)C)[C@H]1c1ccc(CO)cc1 | 0.244 (inactive)
* CC(C)(C)OC(=O)CC[C@]1(C(=O)N2CCOCC2)N=C(c2ccc(OCCCO)cc2)O[C@H]1c1ccccc1 | -0.443 (inactive)
* [N-]=[N+]=NCc1ccccc1C[C@@]1(C(=O)NCCN2CCOCC2)N=C(c2ccc(OCCCO)cc2)O[C@@H]1c1ccccc1N=[N+]=[N-] | -0.402 (inactive)
* CCCC[C@@H]1C[C@H]1[C@@H](NC(=O)c1cccnc1)c1ccc(-c2ccccc2)cc1 | 0.577 (inactive)
* CC[C@@H]1[C@H]2C3C(=O)N(CC)C(=O)C3CC(=O)[C@H]2[C@H](c2ccc(C)cc2)N1S(=O)(=O)c1ccc(C)cc1 (stereo partly specified) | 0.2 (inactive)
